Data provenance: patent US9982005B2

Item-by-item account of MIC
Tested on: BS1723 B. subtilis BS168 WT wild type
Experiment: broth dilution MIC, B. subtilis BS1723
Type: cell-based
Details: Bacillus subtilis, BS1723 B. subtilis BS168 WT wild type; read-out: MIC

Compound: CC[C@H]1OC(=O)[C@H](C)C(=O)C[C@@H](O[C@@H]2OC(C)CC(N(C)C)C2O)[C@@](C)(OC)C[C@@H](C)CN(C(C)=O)[C@H](C)[C@H]2N(CCCCn3cc(-c4ccccn4)nn3)C(=O)O[C@]12C (stereo partly drawn)
Target or system: BS1723 B. subtilis BS168 WT wild type
MIC: > 32 µg/mL
//
Compound: CC[C@H]1OC(=O)[C@H](C)C(=O)C[C@@H](O[C@@H]2OC(C)CC(N(C)C)C2O)[C@](C)(OC)C[C@@H](C)CN(C(C)=O)[C@H](C)[C@H]2N(CCCCn3cc(-c4nc5ccccc5s4)nn3)C(=O)O[C@]12C (stereo partly drawn)
Target or system: BS1723 B. subtilis BS168 WT wild type
MIC: > 32 µg/mL
//
Compound: CC[C@H]1OC(=O)C(C)(F)C(=O)[C@H](C)[C@@H](O[C@@H]2OC(C)CC(N(C)C)C2O)[C@](C)(OC)C[C@@H](C)CN[C@H](C)[C@H]2N(CCCCn3cc(-c4ccccn4)nn3)C(=O)O[C@]12C (stereo partly drawn)
Target or system: BS1723 B. subtilis BS168 WT wild type
MIC: 0.25 µg/mL
//
Compound: CC[C@H]1OC(=O)[C@H](C)C(=O)C[C@@H](O[C@@H]2OC(C)CC(N(C)C)C2O)[C@@](C)(OC)C[C@@H](C)CN(C(C)=O)[C@H](C)[C@H]2N(CCCCn3cc(-c4nc5ccccc5s4)nn3)C(=O)O[C@]12C (stereo partly drawn)
Target or system: BS1723 B. subtilis BS168 WT wild type
MIC: > 32 µg/mL
//
Compound: CC[C@H]1OC(=O)[C@H](C)C(=O)[C@H](C)[C@@H](O[C@@H]2OC(C)CC(N(C)C)C2O)[C@](C)(OC)C[C@@H](C)CN[C@H](C)[C@H]2N(CCCCn3cc(-c4cccnn4)nn3)C(=O)O[C@]12C (stereo partly drawn)
Target or system: BS1723 B. subtilis BS168 WT wild type
MIC: 2 µg/mL
//
Compound: CC[C@H]1OC(=O)[C@](C)(F)C(=O)C[C@@H](O[C@@H]2OC(C)CC(N(C)C)C2O)[C@](C)(OC)C[C@@H](C)CN[C@H](C)[C@H]2N(CCCCn3cc(-c4ccccn4)nn3)C(=O)O[C@]12C (stereo partly drawn)
Target or system: BS1723 B. subtilis BS168 WT wild type
MIC: > 32 µg/mL
//
Compound: CC[C@H]1OC(=O)[C@H](C)C(=O)[C@H](C)[C@@H](O[C@@H]2OC(C)CC(N(C)C)C2O)[C@](C)(OC)C[C@@H](C)CN(C(C)=O)[C@H](C)[C@H]2N(CCCCn3cc(-c4nccs4)nn3)C(=O)O[C@]12C (stereo partly drawn)
Target or system: BS1723 B. subtilis BS168 WT wild type
MIC: 16 µg/mL
//
Compound: CC[C@H]1OC(=O)C(C)(F)C(=O)[C@@H](C)[C@@H](O[C@@H]2OC(C)CC(N(C)C)C2O)[C@](C)(OC)C[C@@H](C)CN[C@H](C)[C@H]2N(CCCCn3cc(-c4cccc(N)c4)nn3)C(=O)O[C@]12C (stereo partly drawn)
Target or system: BS1723 B. subtilis BS168 WT wild type
MIC: 4 µg/mL
//
Compound: CC[C@H]1OC(=O)[C@](C)(F)C(=O)C[C@@H](O[C@@H]2OC(C)CC(N(C)C)C2O)[C@](C)(OC)C[C@@H](C)CN[C@H](C)[C@H]2N(CCCCn3cc(-c4cccnn4)nn3)C(=O)O[C@]12C (stereo partly drawn)
Target or system: BS1723 B. subtilis BS168 WT wild type
MIC: > 32 µg/mL
